subject of test: PDE V (Homo sapiens, UniProt O76074)
Construct: Fractions that contain PDE V are pooled and dialyzed overnight
assay comment: Type V phosphodiesterase inhibition (hydrolysis of [3H]-cyclic GMP)
conditions used: enzyme isolated from platelets
assay endpoint: IC50 (µM)

smiles data: CC(C)c1nc2c([nH]1)c(=O)ncn2Cc1ccc(Cl)cc1
uom: µM
meas value: 7.6

[I] CC(C)c1nc2c([nH]1)c(=O)ncn2Cc1cccc(Cl)c1
[II] COc1ccc(Cn2cnc(=O)c3[nH]c(C(C)(C)O)nc32)cc1OC1CCCC1
Lower IC50: I or II ? Which one? Tell me its label.
I
(I: 6.32 µM, II: 193 µM)
